Test system: HepG2
Test: Antiproliferative activity against human HepG2 cells assessed as cell growth by MTT assay
Format: functional, cell-based
As shown below, each of these molecules has a reported pIC50 value.
The read-out pIC50 is expressed as -log10 of concentration in moles per litre.

O=C1N=C(N2CCC[C@H]2C(=O)Nc2ccc3ncnc(Nc4cccc(Cl)c4)c3c2)S/C1=C/c1cccc(Br)c1	4.67
Cc1cccc(/C=C2/SC(N3CCC[C@H]3C(=O)Nc3ccc4ncnc(Nc5cccc(Cl)c5)c4c3)=NC2=O)n1	5.35
O=C1N=C(N2CCC[C@H]2C(=O)Nc2ccc3ncnc(Nc4cccc(Cl)c4)c3c2)S/C1=C/c1cccs1	5.39
O=C1N=C(N2CCC[C@H]2C(=O)Nc2ccc3ncnc(Nc4cccc(Cl)c4)c3c2)S/C1=C/c1cccnc1Cl	5.19

Reported pIC50 for "COc1ccc(/C=C2/SC(N3CCC[C@H]3C(=O)Nc3ccc4ncnc(Nc5cccc(Cl)c5)c4c3)=NC2=O)cc1" : what is it?
4.72

Reported pIC50 for "O=C1N=C(N2CCC[C@H]2C(=O)Nc2ccc3ncnc(Nc4cccc(Cl)c4)c3c2)S/C1=C/c1cccc(Br)n1" : what is it?
5.57

Reported pIC50 for "O=C1N=C(N2CCC[C@H]2C(=O)Nc2ccc3ncnc(Nc4cccc(Cl)c4)c3c2)S/C1=C/c1ccccc1F" : what is it?
4.74

Reported pIC50 for "O=C1N=C(N2CCC[C@H]2C(=O)Nc2ccc3ncnc(Nc4cccc(Cl)c4)c3c2)S/C1=C/c1ccccc1Br" : what is it?
4.61
